Just for reference, paper PMC8781192 is where these values come from.

biological target: rabbit mGPa (Oryctolagus cuniculus, UniProt P00489); construct: purchased Creative Enzymes; assay: In vitro effect of glucose on inhibitor potency (GPa inhibition with 0, 5, 10 mM glucose); format: biochemical; conditions: GPa IC50 value, 0 mM of glucose; mean ± SEM
assay endpoint: IC50

### Prompt State its IC50: CN(C)C(=O)[C@H](O)[C@H](Cc1ccccc1)NC(=O)c1cc2cc(Cl)ccc2[nH]1 [CP-91149, reference compound]
### Response 0.58 µM

---

biological target: rabbit mGPa (Oryctolagus cuniculus); construct: purchased Creative Enzymes; experiment: In vitro glycogen phosphorylase inhibition assay (direction of glycogen synthesis, colorimetric phosphate); format: biochemical; settings: no glucose; mean ± SEM; read-out: GPa IC50 value
assay endpoint: pIC50
Note on units: pIC50 is unitless, being -log10 of a concentration expressed in mol/L.

// worked examples, pIC50 included
{"columns": ["molecule", "observed value"],
 "data": [
  ["O=c1cc(-c2ccccc2)oc2c(O)c(O)cc(O)c12", 4.88],
  ["CN(C)C(=O)[C@H](O)[C@H](Cc1ccccc1)NC(=O)c1cc2cc(Cl)ccc2[nH]1 [CP-91149, reference compound]", 6.24],
  ["O=c1cc(-c2ccccc2)oc2cc(O)cc(O)c12", 4.71]
]}

### Prompt Hello, please tell me recorded pIC50 for this one: O=c1cc(/C=C/C=C/c2ccc(O)c(O)c2)oc2cc(O)ccc12
### Response 4.78

### Prompt Give pIC50 for O=C(O)[C@H]1O[C@@H](Oc2cc3oc(-c4ccccc4)cc(=O)c3c(O)c2O)[C@H](O)[C@@H](O)[C@@H]1O
### Response 4.69

### Prompt // Input: COc1cc(O)c2c(=O)cc(/C=C/C=C/c3ccc(O)c(O)c3)oc2c1 . Output its pIC50 only.
### Response 4.80

---

Target: rabbit mGPa (Oryctolagus cuniculus, UniProt P00489)
Construct: purchased Creative Enzymes
Sequence (P00489 2-843 limits assumed): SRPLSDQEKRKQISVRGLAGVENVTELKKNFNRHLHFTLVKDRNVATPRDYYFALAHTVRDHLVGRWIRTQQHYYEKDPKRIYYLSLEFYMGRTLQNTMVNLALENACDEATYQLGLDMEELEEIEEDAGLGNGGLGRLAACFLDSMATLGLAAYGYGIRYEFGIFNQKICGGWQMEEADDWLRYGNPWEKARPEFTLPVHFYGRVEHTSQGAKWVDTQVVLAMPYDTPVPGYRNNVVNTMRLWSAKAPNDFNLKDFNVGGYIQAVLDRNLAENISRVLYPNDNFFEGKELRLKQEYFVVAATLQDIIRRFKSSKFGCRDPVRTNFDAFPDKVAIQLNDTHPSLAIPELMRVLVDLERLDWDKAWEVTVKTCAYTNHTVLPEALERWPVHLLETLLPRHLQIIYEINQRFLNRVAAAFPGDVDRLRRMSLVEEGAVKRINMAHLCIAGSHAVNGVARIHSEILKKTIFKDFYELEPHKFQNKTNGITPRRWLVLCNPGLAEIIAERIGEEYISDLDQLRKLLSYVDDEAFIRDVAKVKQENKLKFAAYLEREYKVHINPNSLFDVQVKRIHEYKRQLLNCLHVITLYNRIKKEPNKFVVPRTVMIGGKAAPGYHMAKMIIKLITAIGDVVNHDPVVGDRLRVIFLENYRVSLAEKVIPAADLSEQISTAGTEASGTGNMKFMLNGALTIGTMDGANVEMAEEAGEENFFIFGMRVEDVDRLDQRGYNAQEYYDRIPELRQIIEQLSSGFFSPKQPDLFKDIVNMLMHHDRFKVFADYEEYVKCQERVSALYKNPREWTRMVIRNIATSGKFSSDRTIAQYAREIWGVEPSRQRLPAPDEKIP
Assay: In vitro glycogen phosphorylase inhibition assay (direction of glycogen synthesis, colorimetric phosphate)
Assay type: biochemical
Settings: at 50 μM (highest concentration tested); mean ± SEM; read-out: GPa inhibitory activity (%)
assay endpoint: inhibition at 50 µM

{"columns": ["smiles structure", "inhibition at 50 µM"],
 "data": [
  ["O=c1cc(/C=C/c2ccc(O)cc2)oc2cc(O)cc(O)c12", "< 50%"],
  ["CCCCCCCCCCCCn1cc(/C=C/c2ccccc2)c(-c2ccccc2O)n1", "< 30%"],
  ["COc1ccc(-c2n[nH]cc2/C=C\\c2ccc([N+](=O)[O-])cc2)c(O)c1", "< 30%"],
  ["O=c1cc(-c2ccc(O)cc2)oc2cc(O)cc(O)c12", "35.7%"],
  ["COc1ccc(/C=C/c2cc(-c3ccccc3O)nn2S(=O)(=O)c2ccc(C)cc2)cc1", "< 30%"],
  ["O=c1cc(/C=C/C=C/c2ccc(O)c(O)c2)oc2ccccc12", "< 30%"],
  ["Oc1ccccc1-c1cc(/C=C/c2ccc(Cl)cc2)[nH]n1", "< 30%"],
  ["O=c1c(O)c(-c2ccccc2)oc2cc(O)cc(O)c12", "< 30%"]
]}

Shift focus to the following entry.
### Prompt State its inhibition at 50 µM: COc1ccc(/C=C/c2cc(=O)c3c(OC)cccc3o2)cc1OC
### Response < 30%

---

Molecular target: rabbit mGPa (Oryctolagus cuniculus)
Construct: purchased Creative Enzymes
Sequence (P00489 2-843 limits assumed): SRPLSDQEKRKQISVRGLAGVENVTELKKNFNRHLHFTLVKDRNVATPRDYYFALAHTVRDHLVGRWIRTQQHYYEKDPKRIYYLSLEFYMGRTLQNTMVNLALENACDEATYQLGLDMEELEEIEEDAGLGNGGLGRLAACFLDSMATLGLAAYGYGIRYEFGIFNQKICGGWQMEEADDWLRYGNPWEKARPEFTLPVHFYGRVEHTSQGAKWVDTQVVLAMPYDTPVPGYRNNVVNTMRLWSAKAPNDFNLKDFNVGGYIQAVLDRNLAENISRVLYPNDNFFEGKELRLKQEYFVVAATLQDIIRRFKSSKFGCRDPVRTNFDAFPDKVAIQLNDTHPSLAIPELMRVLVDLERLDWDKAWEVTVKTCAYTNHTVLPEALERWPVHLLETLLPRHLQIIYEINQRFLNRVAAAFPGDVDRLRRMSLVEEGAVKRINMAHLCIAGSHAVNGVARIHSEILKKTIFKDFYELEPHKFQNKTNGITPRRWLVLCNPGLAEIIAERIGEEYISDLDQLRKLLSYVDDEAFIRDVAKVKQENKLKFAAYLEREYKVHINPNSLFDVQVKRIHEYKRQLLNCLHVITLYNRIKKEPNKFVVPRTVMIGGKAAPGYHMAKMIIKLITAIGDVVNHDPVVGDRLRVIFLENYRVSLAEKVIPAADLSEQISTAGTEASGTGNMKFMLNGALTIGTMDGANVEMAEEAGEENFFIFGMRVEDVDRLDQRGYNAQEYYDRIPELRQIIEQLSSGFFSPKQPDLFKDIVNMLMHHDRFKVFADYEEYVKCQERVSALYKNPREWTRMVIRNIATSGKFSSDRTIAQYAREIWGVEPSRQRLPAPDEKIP
Assay: In vitro effect of glucose on inhibitor potency (GPa inhibition with 0, 5, 10 mM glucose)
Assay type: biochemical
Conditions: GPa IC50 value, 10 mM of glucose; mean ± SEM
assay endpoint: IC50 (µM)
Your answer is read as µM, so omit the unit and give the number.

### Prompt Give IC50 for the following compound: CN(C)C(=O)[C@H](O)[C@H](Cc1ccccc1)NC(=O)c1cc2cc(Cl)ccc2[nH]1 [CP-91149, reference compound]
### Response 0.22

---

Molecular target: rabbit mGPa (Oryctolagus cuniculus, UniProt P00489)
Construct: purchased Creative Enzymes
Sequence (P00489 2-843 limits assumed): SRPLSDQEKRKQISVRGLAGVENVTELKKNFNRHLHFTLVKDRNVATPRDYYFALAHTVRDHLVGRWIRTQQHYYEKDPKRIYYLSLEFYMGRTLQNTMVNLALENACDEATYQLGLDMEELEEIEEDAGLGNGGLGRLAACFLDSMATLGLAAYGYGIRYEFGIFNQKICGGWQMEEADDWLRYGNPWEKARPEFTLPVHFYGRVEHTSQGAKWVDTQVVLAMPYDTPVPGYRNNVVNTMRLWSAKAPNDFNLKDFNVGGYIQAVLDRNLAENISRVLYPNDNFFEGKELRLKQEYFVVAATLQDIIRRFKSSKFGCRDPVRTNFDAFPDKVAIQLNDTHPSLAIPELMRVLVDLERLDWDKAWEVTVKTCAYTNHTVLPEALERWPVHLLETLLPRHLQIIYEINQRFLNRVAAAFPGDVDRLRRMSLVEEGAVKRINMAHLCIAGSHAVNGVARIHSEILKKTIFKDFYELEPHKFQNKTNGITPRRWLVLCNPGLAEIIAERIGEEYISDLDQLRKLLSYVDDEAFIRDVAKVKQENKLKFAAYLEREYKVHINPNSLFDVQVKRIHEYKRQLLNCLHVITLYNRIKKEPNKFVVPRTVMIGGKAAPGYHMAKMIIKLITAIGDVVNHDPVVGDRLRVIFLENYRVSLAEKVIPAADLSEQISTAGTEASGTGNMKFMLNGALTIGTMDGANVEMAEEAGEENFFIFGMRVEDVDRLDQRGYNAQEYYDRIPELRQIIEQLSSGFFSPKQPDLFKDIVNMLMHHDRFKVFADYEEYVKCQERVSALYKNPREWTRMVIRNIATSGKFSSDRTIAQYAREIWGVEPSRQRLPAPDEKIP
Experiment: In vitro effect of glucose on inhibitor potency (GPa inhibition with 0, 5, 10 mM glucose)
Type: biochemical
Settings: GPa IC50 value, 5 mM of glucose; mean ± SEM
assay endpoint: IC50 (nM)
The reply should be a number in nM, with the unit left off.

### Prompt Answer with the recorded IC50 of CN(C)C(=O)[C@H](O)[C@H](Cc1ccccc1)NC(=O)c1cc2cc(Cl)ccc2[nH]1 [CP-91149, reference compound] only.
### Response 390
